tested on: SF-295 CNS; experiment: NCI-60 one-dose screen, 48 h; details: 10 µM unless noted
This is part of a sample that, as a whole, favours compounds with a hit. Of some 83,000 tested, about 20% had one in any assay. Calls of active or inactive are those of the source. How the source made its calls: active means growth percent below 10; inactive means the rest.
Form entry, call: pick from active, inactive

Which outcome was entered for the molecule CCC1CCc2nc3sc(C(=O)Nc4cccc(C)c4)c(N)c3cc2C1 (centres undefined) in this test?
inactive

Which outcome was entered for the molecule "Clc1ccc([I+]c2ccc(Cl)cc2Cl)c(Cl)c1" in this test?
inactive

Which outcome was entered for the molecule "C=C1C(=O)O[C@H]2[C@H]1CC/C(Cn1cc(-c3ccccc3C(F)(F)F)nn1)=C\CC[C@@]1(C)O[C@@H]21" in this test?
inactive

Which outcome was entered for the molecule "CC(C)(C)c1cn2cccc(C(=O)N3CCN(CC(=O)Nc4ccc(Cl)cc4C(=O)c4ccccc4Cl)CC3)c2n1" in this test?
active

Which outcome was entered for the molecule COc1ccc(C2=NN(c3ccc(S(N)(=O)=O)cc3)C(c3cn(-c4ccccc4)nc3-c3ccc(Cl)cc3)C2)cc1 (centres undefined) in this test?
inactive

Which outcome was entered for the molecule NC(=O)c1c(NC(=O)c2ccc(OCC3CCCO3)cc2)sc2c1CCCC2 (centres undefined) in this test?
inactive

Which outcome was entered for the molecule "COc1ccc([N+](=O)[O-])c(/C=C/C(=O)c2ccccn2)c1" in this test?
inactive

Which outcome was entered for the molecule "O=S=Nc1ccc([N+](=O)[O-])cc1" in this test?
inactive

Which outcome was entered for the molecule "Cc1ccc(S(=O)(=O)NCCCNc2nccc(-c3c(-c4ccccc4)nc4sccn34)n2)cc1" in this test?
inactive

----------
system: K-562 leukemia; assay: NCI-60 one-dose screen, 48 h (100 = growth as untreated, 0 = no growth, -100 = all killed); conditions: 10 µM unless noted
Compounds without any hit were thinned out: in the full panel of roughly 83,000, 20% have a hit.
Could you please report measured growth for the items listed next?
I only need the number, in %, no unit after it.

Which growth value is on record for "COc1cccc(-c2nc3sccn3c2-c2ccnc(NCCCNS(=O)(=O)c3ccc(F)cc3)n2)c1" ?
16.6

Which growth value is on record for "C=C1C(=O)O[C@H]2[C@H](O)[C@@H](C)CCC/C(C)=C/CC[C@@]3(C)O[C@@H]3C[C@@H]12" ?
79.2

Which growth value is on record for "CCC(=O)Oc1cc(/C=C/C(=O)O[C@H]2C[C@H]3CN4CCc5c([nH]c6cc(OC)ccc56)[C@@H]4C[C@@H]3[C@@H](C(=O)OC)[C@@H]2OC)ccc1OC" ?
39.7

Which growth value is on record for "O=C(CN1CCOCC1)Nc1ccc(-c2nc3ccccc3s2)cc1" ?
99.3

Which growth value is on record for "c1ccc2c(c1)Oc1ccccc1C2C1c2ccccc2Oc2ccccc21" ?
93.6

Which growth value is on record for "COc1ccc(/C=C/c2cc(N3CCOCC3)c3cc(F)c(F)cc3n2)cc1OC" ?
28.9

Which growth value is on record for "COc1ccc(C(=O)/C=C/c2cccc([N+](=O)[O-])c2)c(OC)c1" ?
8.25

Which growth value is on record for "O=C(Cc1n[nH]c(=O)c2ccccc12)OCc1c(Cl)cccc1Cl" ?
46.4

Which growth value is on record for "Nc1c(C(=O)c2ccc(F)cc2)sc2nc3c(cc12)CCCC3" ?
25.8

Which growth value is on record for "CCOC(=O)/C=C\C(=O)NC(N)=O" ?
94.4

Which growth value is on record for "O=C(Nc1ccc(OCc2nnc(-c3ccc(Cl)cc3)o2)c(F)c1)Nc1ccc(Cl)c(Cl)c1" ?
67.3

Which growth value is on record for CC(=O)Nc1ccc(S(=O)(=O)NC(CCC(=O)Nc2ccc(Cl)cc2)C(=O)O)cc1 (stereo not given) ?
77.4

Which growth value is on record for "CCn1cc(C(=O)O)c(=O)c2cc(F)c(N3CCN(S(=O)(=O)c4cccc5ccccc45)CC3)cc21" ?
15.4

Which growth value is on record for "COc1ccc(/C=N/NC(=O)Cn2c(Cc3cccc4ccccc34)nc3ccccc32)cc1" ?
89.4

Which growth value is on record for "CC(=O)Nc1ccc2c(c1)/C(=C\C=C/c1ccc([N+](C)(C)C)cc1)c1ccccc1-2" ?
49.5

Which growth value is on record for "Cc1cc(C)c2c(=O)[nH]c(SCC(=O)Nc3cccc(S(=O)(=O)N(C)C)c3)nc2n1" ?
94.1

Which growth value is on record for "Cc1cc(C)c(NC(=O)c2sc3nc4c(cc3c2N)CN(Cc2ccccc2)CC4)c(C)c1" ?
9.63

Which growth value is on record for "O=C1Nc2cc(Cl)ccc2Oc2cc(Oc3ccccc3)ccc21" ?
25.5

Which growth value is on record for "O=C(O)c1cn(C2CC2)c2cc(N3CCN(S(=O)(=O)c4ccc(Cl)c(Cl)c4)CC3)c(F)cc2c1=O" ?
16.9

Which growth value is on record for COc1cc2c(cc1OC)C1(C)N(CC2)C(=O)OC1(C)C (stereo not given) ?
-78.1

Which growth value is on record for "COc1ccc(NC(=O)CSc2nc3ccccc3c(=O)n2-c2ccccc2C(F)(F)F)c(OC)c1OC" ?
94.5

Which growth value is on record for "Cc1cc(C)c(S(=O)(=O)N2CCN(c3cc4c(cc3F)c(=O)c(C(=O)O)cn4C3CC3)CC2)c(C)c1" ?
63.5

Which growth value is on record for "CC(C)N(Cc1ccc(CN(C(=O)CCl)C(C)C)cc1)C(=O)CCl" ?
14

Which growth value is on record for CC1CCc2c(sc(NC(=O)CSc3nnc4ccccn34)c2C(N)=O)C1 (stereo not given) ?
117

Which growth value is on record for "CCN(CC)CCSc1c2ccc(Cl)cc2nc2ccc(OC)cc12" ?
9.42

Which growth value is on record for "COC(=O)c1cc(-c2cccs2)c(C#N)c(N)c1C#N" ?
104

Which growth value is on record for C=CCOc1ccc(/C(O)=C2\C(=O)C(=O)N(c3nccs3)C2c2ccccc2F)cc1 (stereo not given) ?
109

Which growth value is on record for "COc1ccc(/C=C/C(=O)c2ccc(NC(=O)CN3CCN(c4cc5c(cc4F)c(=O)c(C(=O)O)cn5C4CC4)CC3)cc2)cc1" ?
104

Which growth value is on record for "O=C(Nc1ccc(I)cc1)c1cc([N+](=O)[O-])ccc1O" ?
18.7

Which growth value is on record for "O=C1Nc2cc(Cl)ccc2/C1=C/c1ccc(N2CCOCC2)s1" ?
98.5

Which growth value is on record for CCC(C)NCC(=O)O (stereo not given) ?
96.3

Which growth value is on record for "COc1ncc(-c2ccc3ncnc(Nc4cccc(Cl)c4)c3c2)cc1NS(=O)(=O)CCN1CCOCC1" ?
45.8

Which growth value is on record for "COc1ccc(NC(=O)CSc2nc3ccccc3c(=O)n2Cc2cc(OC)c(OC)c(OC)c2)cc1" ?
79.8

Which growth value is on record for "Nc1c(C(=O)Nc2ccccc2)sc2nc3c(cc12)CN(Cc1ccccc1)CC3" ?
61.1

Which growth value is on record for "O=C(CNC(=O)c1cccc2ccccc12)Nc1ccccc1Oc1ccccc1" ?
7.84

Which growth value is on record for "CCN(C(=O)c1cc2ccccc2[nH]1)[C@H]1CCC[C@@H](NCc2ccc(OC)cc2)C1" ?
76.6

Which growth value is on record for "CCCOC(=O)C1(O)CCCC1" ?
110

Which growth value is on record for "CCCCCCCC/C=C\CCCCCCCCOc1ccccc1CCOP(=O)(O)OCC[N+](C)(C)C" ?
72.7

Which growth value is on record for CC(=O)N1Cc2ccccc2C(C)Cc2cc(Cl)ccc21 (stereo not given) ?
102

Which growth value is on record for "COc1ccc(-c2nc3sccn3c2-c2ccnc(NCCCNS(=O)(=O)c3ccc4ccccc4c3)n2)cc1" ?
34.6

----------
Could you please report measured growth for the items listed next?
Tested on: SK-OV-3 ovarian
Experiment: NCI-60 one-dose screen, 48 h (100 = growth as untreated, 0 = no growth, -100 = all killed)
Conditions: 10 µM unless noted
Description: Growth inhibition of the SK-OV-3 human tumor cell line is measured as a screen for anti-cancer activity. Cells are grown in 96 well plates and exposed to the test compound for 48 hours. Compounds are tested at a single concentration, which is 10^-5 M for most compounds. The reported endpoint is percent growth (GI% or GIPRCNT), where numbers from 0 - 100% represent growth inhibition, and numbers from -100% - 0 represent cell death. For example, a value of 40 represents 60% growth inhibition. […]
Compounds without any hit were thinned out: in the full panel of roughly 83,000, 20% have a hit.
I only need the number, in %, no unit after it.

Give growth (SK-OV-3 ovarian) of the following compound: "Cc1nc(Nc2cccnc2)sc1C(=O)/C=C/c1ccc(Cl)cc1"
81.3

Give growth (SK-OV-3 ovarian) of the following compound: "COc1cc(CNC(=O)CCSc2nc3ccccc3c(=O)n2Cc2cc(OC)c(OC)c(OC)c2)cc(OC)c1OC"
27.3

Give growth (SK-OV-3 ovarian) of the following compound: COc1ccc(C2CC(c3cccs3)=NN2c2ccc(S(=O)(=O)NC(=O)NCc3cccc(OC)c3)cc2)cc1 (stereo not given)
82.6

Give growth (SK-OV-3 ovarian) of the following compound: CC(Br)C(OC(=O)c1ccccc1Cl)c1cc2c(cc1Br)OCO2 (stereo not given)
124

Give growth (SK-OV-3 ovarian) of the following compound: COc1ccc(C2NC3=C(CCCC3)C(C#N)(C#N)C2(C#N)C#N)cc1 (stereo not given)
99.5

Give growth (SK-OV-3 ovarian) of the following compound: CCCCC(N)(C(=O)O)C1CCCC1 (stereo not given)
117

Give growth (SK-OV-3 ovarian) of the following compound: "Cc1ccc(Cn2c(-c3cccs3)nc3ccccc32)cc1"
100

Give growth (SK-OV-3 ovarian) of the following compound: "COc1cc(C(=O)CCCl)ccc1O"
111

Give growth (SK-OV-3 ovarian) of the following compound: "Cc1ccnc2nc(C(=O)OCC(=O)Nc3ccc(-c4ccccc4)cc3)nn12"
116

Give growth (SK-OV-3 ovarian) of the following compound: "O=C(Nc1cc(C(F)(F)F)cc(C(F)(F)F)c1)Nc1ccc(OCc2nnc(-c3ccc(Cl)cc3)o2)c(F)c1"
5.55
